Listed next: entries and their corresponding MIC values.
Test system: Providencia stuartii CMX 640
Experiment: In Vitro Antibacterial Activity, agar dilution MIC
Type: cell-based
Conditions: P. stuartii CMX 640; BHI agar dilution, 20-24 hours; unit assumed
Could you give me the number in µg/mL? Just the number is fine.

Solved cases below.
- NC1CN(c2c(F)cc3c(=O)c(C(=O)O)cn(C4CC4)c3c2F)CC12OCCO2 (centres unmarked) [Example 274]: 0.78
- C[C@@H]1COc2c(N3CCC4(CC3)OCCCO4)c(F)cc3c(=O)c(C(=O)O)cn1c23 [Example 330]: 50
- Cl.Cl.NCC1COC2(CCN(c3cc4c(cc3F)c(=O)c(C(=O)O)cn4-c3ccc(F)cc3F)C2)O1 (centres unmarked) [Example 159]: 25

Could you now look at the following molecule, please?
Task: Report MIC values for O=C(O)c1cn(C2CC2)c2cc(N3CCNCC3)c(F)cc2c1=O [Cipro, Ciprofloxacin, reference compound]
Result: 0.78

---

Listed next: entries and their corresponding MIC values.
Tested on: Pseudomonas aeruginosa A5007
Assay: In Vitro Antibacterial Activity, agar dilution MIC
Assay type: cell-based
Settings: P. aeruginosa A5007; BHI agar dilution, 20-24 hours; unit assumed
Report as: number unit

* NC1CN(c2c(F)cc3c(=O)c(C(=O)O)cn(C4CC4)c3c2F)CC12OCCO2 (centres unmarked) | 1.56 µg/mL
* Cl.Cl.NCC1COC2(CCN(c3cc4c(cc3F)c(=O)c(C(=O)O)cn4-c3ccc(F)cc3F)C2)O1 (centres unmarked) | 3.1 µg/mL
* C[C@@H]1COc2c(N3CCC4(CC3)OCCCO4)c(F)cc3c(=O)c(C(=O)O)cn1c23 | 12.5 µg/mL

Task: Report MIC values for CN(C)CC1COC2(CCN(c3nc4c(cc3F)c(=O)c(C(=O)O)cn4-c3ccc(F)cc3F)C2)O1 (centres unmarked)
Result: 12.5 µg/mL

Task: Report MIC values for O=C(O)c1cn(C2CC2)c2cc(N3CCNCC3)c(F)cc2c1=O [Cipro, Ciprofloxacin, reference compound]
Result: 0.1 µg/mL

---

System: Pseudomonas cepacia 2961
Test: In Vitro Antibacterial Activity, agar dilution MIC
Assay type: cell-based
Details: P. cepacia 2961; BHI agar dilution, 20-24 hours; unit assumed
QUANTITY NAME: MIC values

* Cl.Cl.NCC1COC2(CCN(c3cc4c(cc3F)c(=O)c(C(=O)O)cn4-c3ccc(F)cc3F)C2)O1 (centres unmarked) | 50 µg/mL
* O=C(O)c1cn(C2CC2)c2cc(N3CCNCC3)c(F)cc2c1=O [Cipro, Ciprofloxacin, reference compound] | 3.1 µg/mL

Task: Report MIC values for "C[C@@H]1COc2c(N3CCC4(CC3)OCCCO4)c(F)cc3c(=O)c(C(=O)O)cn1c23"
Result: 12.5 µg/mL

Task: Report MIC values for NC1CN(c2c(F)cc3c(=O)c(C(=O)O)cn(C4CC4)c3c2F)CC12OCCO2 (centres unmarked)
Result: 6.2 µg/mL

Task: Report MIC values for CN(C)CC1COC2(CCN(c3nc4c(cc3F)c(=O)c(C(=O)O)cn4-c3ccc(F)cc3F)C2)O1 (centres unmarked)
Result: 50 µg/mL
